Tested on: Zika virus NS2B-NS3 protease (unlinked complex)
Assay: Primary screen GU Rhodamine qHTS for Zika virus inhibitors: Unlinked NS2B-NS3 protease assay (AID 1347159); further: on the % scale 0 is the no-effect control and ±100 the full control effect; nearly all actives have a fitted effect of over 60% in size
Conditions: Recombinant ZIKV NS2B-NS3 protease, Rhodamine110 substrate fluorescence; series mostly up to 107 µM
Results filed as inconclusive are left out. Activity calls are given as the source filed them. The call rests on the fitted dose curve; in most records, active means well fitted inhibition curve with a large enough effect; inconclusive means small, poorly fitted or top-dose-only effect; inactive means no such curve, though single readings can be large or run the other way.
property measured: outcome

>>> value("CC1=CC(=O)CC(C)(C)C1CCC(C)O[C@@H]1O[C@H](CO)[C@@H](O)[C@H](O)[C@H]1O (stereo partly drawn)")
"inactive"
>>> value("C/C=C/C(=O)OC1/C=C/C(O)C(OC(C)=O)CCC(=O)OC1C (stereo not drawn)")
"inactive"
>>> value("C=C1CCC2[C@](C)(CO)CCC[C@@]2(C)[C@@H]1CCC1=CCOC1=O (stereo partly drawn)")
"inactive"

====

System: HEK293
Assay: Cytotoxic Profiling of Annotated Libraries Using Quantitative High-Throughput Screening (AID 1296008); further: on the % scale 0 is the no-effect control and ±100 the full control effect; nearly all actives have a fitted effect of over 60% in size
Conditions: Five cell lines viability, CellTiter-Glo ATP luminescence, 48-72 h; active compounds read low
Inconclusive results are not listed.
Please respond with reported max response for every item in the list.
Numbers only, in %.

Use these answered entries as a reference point.
>>> value("CCOC(=O)c1ccc(NC2CCCCC2)c(N)c1")
-10.7
>>> value("CC(=O)OC/C(=C/C(=O)O)CC[C@@H]1C(C)=CC(=O)[C@@H]2C(C)(C)CCC[C@@]12C")
-0.879
>>> value("O=C(O)CC1CCC(c2ccc(-c3ccc(Nc4ccc(C(F)(F)F)nc4)cn3)cc2)CC1 (configuration not stated)")
-8.47

Batch lookup, max response per entry.
1. COc1cc(C(=O)OCC2=CCC3C(C(=O)O)=COC(O[C@@H]4O[C@H](CO)[C@@H](O)[C@H](O)[C@H]4O)C23)ccc1O (some centres not stated)
2. COc1ccc(N2CCN(CCCNC(=O)Cn3c(=O)c4cccn4c4c(C)ccnc43)CC2)cc1
3. CC(=O)/C=C/C1(O)C(C)CC(O[C@@H]2O[C@H](CO)[C@@H](O)[C@H](O)[C@H]2O)CC1(C)C (some centres not stated)
4. COCCCc1sc(-c2ccccc2)nc1C(=O)Nc1ccccc1-c1nc2cc(CN3CCCC3)cnc2s1
5. C=C1C[C@]23C[C@H]1CC[C@H]2[C@]1(C)CC[C@H](O)[C@@](C)(C(=O)O)[C@H]1[C@@H]3C(=O)O
6. C/C=C(\C)C(=O)OCC1OC(OCC2OC(OC3(CO)OC(CO)C(O)C3O)C(O)C(O)C2O)C(O)C(O)C1O (configuration not stated)
7. CC[C@@H](C)[C@H](N)C(=O)N1Cc2ccccc2C1

Response:
1. -8.64
2. -13.3
3. 1.81
4. -7.81
5. 0.167
6. -3.28
7. -17.7

For each of the compounds below, note its max response.
1. CC1(C)CCC[C@]2(C)C1CC=C(CO)[C@H]2CC/C(=C/CO)CO (some centres not stated)
2. COc1ccc(OC)c(C2C(C#N)=C(N)Oc3n[nH]c(-c4ccc5ccccc5c4)c32)c1 (configuration not stated)

Response:
[-9.82, 0.943]

====

Tested on: CRL-7250
Test: Cytotoxic Profiling of Annotated Libraries Using Quantitative High-Throughput Screening (AID 1296008); further: on the % scale 0 is the no-effect control and ±100 the full control effect; nearly all actives have a fitted effect of over 60% in size
Conditions: Five cell lines viability, CellTiter-Glo ATP luminescence, 48-72 h; active compounds read low
Results filed as inconclusive are left out.
Kindly state max response for each of the entries shown.
One number for each entry, in %.

>>> value("C=C(C(=O)O)[C@H]1C[C@]2(C)C(=O)CC[C@]23O[C@H]1C[C@@H]3C")
-1.57
>>> value("C/C=C(\\C)C(=O)OC[C@H]1O[C@@H](O[C@H]2[C@@H](O[C@H]3O[C@H](COC(=O)/C(C)=C/C)[C@@H](O)[C@H](O)[C@H]3O[C@@H]3O[C@H](COC(=O)/C(C)=C/C)[C@@H](O)[C@H](OC(=O)/C(C)=C/C)[C@H]3O)O[C@H](COC(=O)/C(C)=C/C)[C@@H](O)[C@@H]2O)[C@H](O)[C@@H](O)[C@@H]1O")
-1.79
>>> value("C=C1CCC(OC(C)=O)C2(C)CC3OC(=O)C(C)=C3CC12 (centres undefined)")
-0.951

Proceeding to the next compound to report its max response.
Request: // returns reported max response for input CCC(C)/C=C(C)/C=C/C1=CC2=C(Cl)C(=O)C(C)(OC(C)=O)C(=O)C2=CN1C(CCC(=O)O)C(=O)O (centres undefined)
Response: -2.2

====

System: Zika virus NS2B-NS3 protease (linked construct)
Test: Primary screen NINDS Rhodamine qHTS for Zika virus inhibitors (AID 1347160); further: nearly all actives have a fitted effect of over 55% in size
Details: purified NS2B-NS3 protease, Rhodamine110 substrate fluorescence; series mostly up to 33.1 µM
Inconclusive results are not listed. Calls of active or inactive are those of the source. Calls follow the shape of the dose curve; as a rule, active = well fitted inhibition curve with a large enough effect; inconclusive = small, poorly fitted or top-dose-only effect; inactive = no such curve, though single readings can be large or run the other way.
Select the matching outcome among 1.0 = active, 0.0 = inactive

>>> answer_label("COC(=O)C(CC1(OC(=O)C(C)C)c2ccccc2N2C(=O)C(C)(C)N(O)C21)n1cnc2ccccc2c1=O (stereo not drawn)")
0.0
>>> answer_label("COc1cc(O)c(C(=O)O)c(CCc2ccccc2)c1")
1.0

Now look at this entry.
Request: Short answer needed: outcome of this test for COc1cc(C[C@@]2(O)CO[C@@H](c3ccc(O[C@@H]4O[C@H](CO)[C@@H](O)[C@H](O)[C@H]4O)c(OC)c3)[C@H]2CO)ccc1O ?
Response: 0.0

====

Test system: NIH3T3
Assay: qHTS assay to identify novel small-molecules to repurpose for Merkel cell carcinoma treatment (AID 1296009); further: nearly all actives have a fitted effect of over 60% in size
Settings: MCC and control cell lines, CellTiter-Glo viability, 72 h; at 44.8 µM (top of the series) unless noted
Text: MCC is a rare and aggressive neuroendocrine skin cancer with limited treatment options. Approximately 80% of MCCs have the Merkel cell polyomavirus (MCPyV) DNA integrated into the host genome (virus-positive: VP-MCC) and viral oncogenes drive oncogenesis. The remaining MCCs are virus-negative (VN-MCC) and are caused by UV mutagenesis. […] Using cell viability as a readout (CellTiter-Glo assay) we found both overlapping and distinct drugs that can be repurposed for the treatment of VP-MCC and VN-MCC. […]
Inconclusive results are not listed. Active and inactive are the calls of the source. Calls follow the shape of the dose curve; as a rule, active = well fitted inhibition curve with a large enough effect; inconclusive = small, poorly fitted or top-dose-only effect; inactive = flat fitted curve, though single readings scatter.
property measured: outcome

>>> value("C[C@@H](NC(=O)c1cc(C(=O)N[C@@H](Cc2ccccc2)[C@H](O)CNC2CC2)cc(N(C)S(C)(=O)=O)c1)c1ccccc1")
"inactive"
>>> value("CC(=O)/C=C/C1(O)C(C)=CC(=O)CC1(C)C (stereo not given)")
"inactive"
>>> value("CC(C)C1CCC(C(=O)N[C@@H](Cc2ccccc2)C(=O)O)CC1 (stereo not given in full)")
"inactive"
>>> value("COC(=O)C(CC1(O)c2ccccc2N2C(=O)C(CC(C)C)NC21)n1cnc2ccccc2c1=O (stereo not given)")
"inactive [at 17.4 µM]"

Request: Name the recorded outcome for COc1cc(C2Oc3c(OC)cc(/C=C/C(=O)OC4CC(O)(C(=O)O)CC(O)C4O)cc3C2CO)ccc1O (stereo not given) .
Response: inactive [at 17.4 µM]

====

Test system: OV90
Experiment: Primary qHTS to identify gynecologic anti-cancer compounds using libraries of approved drugs and bioactive compounds (AID 1345084); further: on the % scale 0 is the no-effect control and ±100 the full control effect; nearly all actives have a fitted effect of over 55% in size
Conditions: Gynecologic cancer cell panel viability, ATPlite luminescence, 48 h; series mostly up to 57.5 µM
Results filed as inconclusive are left out. Activity calls are given as the source filed them. The call rests on the fitted dose curve; in most records, active means well fitted cell-killing curve with a large enough effect; inconclusive means small, poorly fitted or top-dose-only effect, or effect the other way; inactive means flat fitted curve, though single readings scatter.
property measured: activity change, negative = cytotoxicity

>>> value("COC(=O)C(CC1(O)c2ccccc2N2C(=O)C(CC(C)C)NC21)n1cnc2ccccc2c1=O (stereo not drawn)")
"inactive"
>>> value("CC1OC(OC2C(OC(=O)[C@]34CCC(C)(C)C[C@H]3C3=CCC5[C@@]6(C)CC[C@H](OC7OC(C(=O)O)C(O)C(O)C7O)C(C)(C)C6CC[C@@]5(C)[C@]3(C)CC4O)OC(CO)C2O)C(O)C(O)C1OC1OCC(O)C(O)C1O (stereo partly drawn)")
"-5.89% [at 11.6 µM] (inactive)"
>>> value("C/C(=C\\CC[C@H](CO)[C@@H]1CC[C@]2(C)C3=C(CC[C@@]12C)[C@@]1(C)CCC(=O)C(C)(C)C1CC3)C(=O)O (stereo partly drawn)")
"inactive"

====

So I've got a bunch of compounds here, and I need their max response values.
System: HEK293
Experiment: Cytotoxic Profiling of Annotated Libraries Using Quantitative High-Throughput Screening (AID 1296008); further: on the % scale 0 is the no-effect control and ±100 the full control effect; nearly all actives have a fitted effect of over 60% in size
Conditions: Five cell lines viability, CellTiter-Glo ATP luminescence, 48-72 h; active compounds read low
Procedure: Cell-based phenotypic screening is a commonly used approach to discover biological pathways, novel drug targets, chemical probes and high-quality hit-to-lead molecules. […] A pintool (Kalypsys) was used to transfer 23 nL of compound solution to the 1536-well assay plates. […] Plates were left at room temperature for 10 min before imaging the ATP-coupled luminescence using a ViewLux microplate imager (PerkinElmer, Waltham, MA).
Results filed as inconclusive are left out. The source made the active and inactive calls. The call rests on the fitted dose curve; in most records, active means well fitted inhibition curve with a large enough effect; inconclusive means small, poorly fitted or top-dose-only effect; inactive means flat fitted curve, though single readings scatter.

Use these answered entries as a reference point.
>>> value("O=[N+]([O-])c1cc(Cl)ccc1S(=O)(=O)N1CCN(Cc2ccccc2)CC1")
"-21.3% (inactive)"
>>> value("C/C(=C\\C1CCC(C)C2CCC3(C)OC123)C(=O)O (stereo unspecified)")
"-3.45% (inactive)"

Hi, could you look up max response for each item in my list?
1. COc1cc(CC2COC(c3ccc(OC4OC(CO)C(O)C(O)C4O)c(OC)c3)C2CO)ccc1O (stereo unspecified)
2. Cc1nnc(-c2ccc3occ(-c4ccc(S(C)=O)cc4)c3c2)o1 (stereo unspecified)
3. Cc1nnc(-c2sc(NC(=O)[C@H](C(C)C)n3c(=O)[nH]c4ccccc4c3=O)nc2C)o1
4. CC(C)CC(c1c(O)c(C=O)c(O)c(C=O)c1O)C1CCC(C)(O)C2CC(C(C)(C)O)CCC12C (stereo unspecified)
5. C=C(C(=O)O)[C@@H]1CC[C@@]2(C)CCC[C@@](C)(O)[C@@H]2C1

Response:
["0.464% (inactive)", "-3.27% (inactive)", "-6.7% (inactive)", "-7.48% (inactive)", "-3.93% (inactive)"]

State the recorded max response for every item in the following list.
1. C=C1CC2C(C)(CCC(=O)O)C(C(C)(C)O)CCC2(C)C2(C(=O)OC)C(=O)C(C)(O)C(=O)C12C (stereo unspecified)
2. COc1ccc(-n2c(SCC#N)nc3sc4c(c3c2=O)CCCC4)cc1
3. COc1cc2nc(=NC(=O)c3cccnc3)n3c(c2cc1OC)NCC3
4. C[C@]1(O)CC[C@@H]2C(C(=O)O)=CO[C@@H](O[C@@H]3O[C@H](COC(=O)/C=C/c4ccc(O)c(O)c4)[C@@H](O)[C@H](O)[C@H]3O)[C@@H]21

Response:
-13.4% (inactive)
3.85% (inactive)
-3.57% (inactive)
0.933% (inactive)

These data points were gathered from PubChem BioAssay (NCATS).
